B1: mRNA-splicing (parent)
chain: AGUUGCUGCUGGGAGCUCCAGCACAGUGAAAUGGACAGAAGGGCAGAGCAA

- Variants of: B1
- test method notes: exon inclusion enrichment index; higher = more inclusion; WT1 exon 5 minigene, HEK293
Record form. Attribute: exon inclusion enrichment index. Fill in for each entry.
// response body must contain only the number

Task item: Give recorded exon inclusion enrichment index. AGUUGAAGAAGGGAGCUCCAGCACAGUGAAAUGCCCAGAAGGGCAGAGCAA [C6A U7A C9A U10A G34C A35C]
Reply: 0.0588

Task item: Give recorded exon inclusion enrichment index. AGUUGACGACGGGAGCUCCAGCACAGUGAAAUGAGCAGAAGGGCAGAGCAA [C6A U7C C9A U10C G34A A35G]
Reply: 2.05

Task item: Give recorded exon inclusion enrichment index. AGUUUCUUUUGGGAGCUCCAGCACAGUGAAACGGACAGAAGGGCAGAGCAA [G5U G8U C9U U32C]
Reply: 0.344

Task item: Give recorded exon inclusion enrichment index. AGGGAGGGAUGGGAGCUCCAGCACAGUGAAAUGGACAGAAGGGCAGAGCAA [U3G U4G G5A C6G U7G C9A]
Reply: 0.00966

Task item: Give recorded exon inclusion enrichment index. AGUUCGCGCCGUUAGCUCCAGCACAGUGAAAUGGACAGAAGGGCAGAGCAA [G5C C6G U7C U10C G12U G13U]
Reply: 0.206

Task item: Give recorded exon inclusion enrichment index. AGUUUCCGUUGGGAGCUCCAGCACAGUGAAAUGGACAGAAGGGCAGAGCAA [G5U U7C C9U]
Reply: 0.916

Task item: Give recorded exon inclusion enrichment index. AGGUGAAGAAGGGAGCUCCAGCACAGUGAAAUGGACAGAAGGGCAGAGCAA [U3G C6A U7A C9A U10A]
Reply: 0.238

Task item: Give recorded exon inclusion enrichment index. AGUUCACACAGGGAGCUCCAGCACAGUGAAAUGGACAGAAGGGUGGAGCAA [G5C C6A U7C G8A U10A C44U A45G]
Reply: 0.0445

Task item: Give recorded exon inclusion enrichment index. AGUUCGCGUAGGGAGCUCCAGCACAGUGAAAUGGACAGAAGGGCAGAGCAA [G5C C6G U7C C9U U10A]
Reply: 0.144

Task item: Give recorded exon inclusion enrichment index. AGUUACCACCGGGAGCUCCAGCACAGUGAAAUGGACGUAAGGGCAGAGCAA [G5A U7C G8A U10C A37G G38U]
Reply: 0.991

Task item: Give recorded exon inclusion enrichment index. AGUUAUAUAUGGGAGCUCCAGCACAGUGAAAUGGACAGAAGGGCAGUGCAA [G5A C6U U7A G8U C9A A47U]
Reply: 0.0348

Task item: Give recorded exon inclusion enrichment index. AGUUACCACCGGGAGCUCCAGCACAGUGAAAUGGACAGAUCGGCAGAGCAA [G5A U7C G8A U10C A40U G41C]
Reply: 3.14

Task item: Give recorded exon inclusion enrichment index. AGUUGCUGCUGGGAGCUCCAGCACAGUGAAAUGGACAGAAGGGCAACGCAA [G46A A47C]
Reply: 0.547

Task item: Give recorded exon inclusion enrichment index. AGUUCACACAGGGAGCUCCAGCACUCUGAAAUGGACAGAAGGGCAGAGCAA [G5C C6A U7C G8A U10A A25U G26C]
Reply: 0.181

Task item: Give recorded exon inclusion enrichment index. AGUUAUAUAUGGGAGCUCCAGCACAGAAAAAUGGACAGAAGGGCAGAGCAA [G5A C6U U7A G8U C9A U27A G28A]
Reply: 0.065

Task item: Give recorded exon inclusion enrichment index. AGUUGACGACGGGAGCUCCAGCACAGUGAAAUGUCCAGAAGGGCAGAGCAA [C6A U7C C9A U10C G34U A35C]
Reply: 1.5

Task item: Give recorded exon inclusion enrichment index. AGUUCUUCUCGGGAGCUCCCACACAGUGAAAUGGACAGAAGGGCAGAGCAA [G5C C6U G8C C9U U10C A20C G21A]
Reply: 0.599

Task item: Give recorded exon inclusion enrichment index. AGUUAUAUCGGGGAGCUCCAGCACAGUGAAAUGGACAGAAGGGCAGAGCAA [G5A C6U U7A G8U U10G]
Reply: 0.317

Task item: Give recorded exon inclusion enrichment index. AGUUAUAUAUGGGAGCUCCAGCACAGUGAAAUGGUCAGAAGGGCAGAGCAA [G5A C6U U7A G8U C9A A35U]
Reply: 0.00487

Task item: Give recorded exon inclusion enrichment index. AGUUCUUCUCGGGAGCUCCAGCACAGUGAAAUGGACUAAAGGGCAGAGCAA [G5C C6U G8C C9U U10C A37U G38A]
Reply: 0.713

Task item: Give recorded exon inclusion enrichment index. AGUUACCACCGGGAGCUCCAGCACAGUUAAAUGGACAGAAGGGCAGAGCAA [G5A U7C G8A U10C G28U]
Reply: 0.556

Task item: Give recorded exon inclusion enrichment index. ACAUCUUCUCGGGAGCUCCAGCACAGUGAAAUGGACAGAAGGGCAGAGCAA [G2C U3A G5C C6U G8C C9U U10C]
Reply: 1.71
